Values were extracted from PubChem BioAssay (NCI).

Entries annotated with measured TGI
test system: BT-549 breast; assay: NCI tumour cell line growth inhibition, 48 h

[
  {
    "Molecule": "Cc1[nH]c2ccccc2c1C1=CC(=O)N(c2ccccc2)C1=O",
    "TGI": "> 100 µM"
  },
  {
    "Molecule": "CCOC(=O)Oc1ccc2c(c1)c(=O)c1c(NCCCN(CC)CC)ccc3nnn2c31",
    "TGI": "32 µM"
  },
  {
    "Molecule": "Cc1cn2c(/C=C3/C(=O)Nc4ccccc43)c(C)nc2s1",
    "TGI": "> 100 µM"
  },
  {
    "Molecule": "C=C(C)C(=O)O[C@H]1CC2=CC(CC(C)=C[C@H]3OC(=O)C(=C)C13)OC2=O (stereo partly drawn)",
    "TGI": "38.9 µM"
  },
  {
    "Molecule": "Cn1nc(C(=O)N2CC(CCl)c3c2cc([N+](=O)[O-])c2ccccc32)cc1NC(=O)Nc1cc(C(=O)N2CC(CCl)c3c2cc([N+](=O)[O-])c2ccccc32)nn1C (stereo not drawn)",
    "TGI": "> 100 µM"
  },
  {
    "Molecule": "CC[C@H](C)[C@H]1NC(=O)[C@@H](NC(=O)[C@@H](CC(C)C)N(C)C(=O)C2CCCN2C(=O)[C@H](C)O)[C@@H](C)OC(=O)[C@H](Cc2ccccc2)N(C)C(=O)[C@@H]2CCCN2C(=O)[C@H](CC(C)C)NC(=O)[C@@H](C)C(=O)[C@H](C(C)C)OC(=O)C[C@@H]1O (stereo partly drawn)",
    "TGI": "< 0.00625 µM"
  },
  {
    "Molecule": "COc1cc(-c2oc3c(OC)c(O)cc(O)c3c(=O)c2OC)ccc1O",
    "TGI": "59.2 µM"
  },
  {
    "Molecule": "CCOC(=O)c1ccc(Nc2cnc3ccc(C(F)(F)F)cc3n2)cc1",
    "TGI": "34 µM"
  },
  {
    "Molecule": "CSc1nc(-c2ccc(Cl)cc2)c(C#N)c(=O)[nH]1",
    "TGI": "> 100 µM"
  },
  {
    "Molecule": "CCc1n[nH]c(=S)n1/N=C\\c1ccc(-c2ccccc2[N+](=O)[O-])o1",
    "TGI": "> 100 µM"
  },
  {
    "Molecule": "Oc1ccc(Cn2c(-c3ccc(O)cc3)nc3ccccc32)cc1",
    "TGI": "> 100 µM"
  },
  {
    "Molecule": "Cn1ncnc1C1c2n[nH]c(=O)c3cc(F)cc(c23)NC1c1ccc(F)cc1 (stereo not drawn)",
    "TGI": "> 100 µM"
  },
  {
    "Molecule": "S=C(Nc1cccc(C2(N3CCCCC3)CCCCC2)c1)Nc1cccc(C2(N3CCCCC3)CCCCC2)c1",
    "TGI": "> 100 µM"
  },
  {
    "Molecule": "COC(=O)C1(C)OC(C)=NC1(C(=O)OC)C(=O)OC (stereo not drawn)",
    "TGI": "> 31.6 µM"
  },
  {
    "Molecule": "O=C1COCCN1c1ccc(NCc2cn(C(=O)c3ccc(Cl)cc3)c3ccccc23)cc1",
    "TGI": "53.7 µM"
  },
  {
    "Molecule": "O=C(NN1C(=O)CSC12CCC(c1ccccc1)CC2)c1[nH]c2ccc(F)cc2c1-c1ccccc1 (stereo not drawn)",
    "TGI": "34.8 µM"
  },
  {
    "Molecule": "COc1cc(C2S/C(=C/c3ccccc3)C(=O)N2c2ccccc2Cl)cc(OC)c1OC (stereo not drawn)",
    "TGI": "> 100 µM"
  },
  {
    "Molecule": "CNc1ncnc2c1cnn2Cc1cn(CCCCO)nn1",
    "TGI": "> 100 µM"
  }
]
